# Tested on: Salmonella typhimurium
# METHOD NOTES: Mutagenicity in Salmonella typhimurium TA100 at 0.625 mg/ml after 48 hrs by AMES MPF assay in absence of Sprague-Dawley rat liver microsomal S9 fraction relative to baseline
# Type: toxicity, organism-based
# CONDITION SET: salmonella enterica subsp. enterica serovar typhimurium
EXPERIMENTAL ENDPOINT: fold change (FC)

{"COMPOUND": "Fc1ccc(C2CC(c3ccc(Cl)s3)=NN2c2nc(-c3ccc(Br)cc3)cs2)cc1 (stereo unspecified)", "EXPERIMENTAL ENDPOINT": "fold change (FC)", "NUMBER": 0.33}
{"COMPOUND": "Fc1ccc(C2CC(c3ccc(Cl)s3)=NN2c2nc(-c3ccc(C(F)(F)F)cc3)cs2)cc1 (stereo unspecified)", "EXPERIMENTAL ENDPOINT": "fold change (FC)", "NUMBER": 1.33}
{"COMPOUND": "Cc1ccc(C2=NN(c3nc(-c4ccc(C#N)cc4)cs3)C(c3ccc(F)cc3)C2)s1 (stereo unspecified)", "EXPERIMENTAL ENDPOINT": "fold change (FC)", "NUMBER": 0.74}
{"COMPOUND": "Fc1ccc(C2CC(c3ccc(Cl)s3)=NN2c2nc(-c3ccc(Cl)cc3)cs2)cc1 (stereo unspecified)", "EXPERIMENTAL ENDPOINT": "fold change (FC)", "NUMBER": 0.33}
{"COMPOUND": "Cc1ccc(C2=NN(c3nc(-c4ccc(S(C)(=O)=O)cc4)cs3)C(c3ccc(F)cc3)C2)s1 (stereo unspecified)", "EXPERIMENTAL ENDPOINT": "fold change (FC)", "NUMBER": 0.99}
{"COMPOUND": "Fc1ccc(C2CC(c3ccc(Cl)s3)=NN2c2nc(-c3ccccc3)cs2)cc1 (stereo unspecified)", "EXPERIMENTAL ENDPOINT": "fold change (FC)", "NUMBER": 0.96}
